- study_target: Dihydrofolate reductase (Homo sapiens)
- Sequence (P00374 whole entry): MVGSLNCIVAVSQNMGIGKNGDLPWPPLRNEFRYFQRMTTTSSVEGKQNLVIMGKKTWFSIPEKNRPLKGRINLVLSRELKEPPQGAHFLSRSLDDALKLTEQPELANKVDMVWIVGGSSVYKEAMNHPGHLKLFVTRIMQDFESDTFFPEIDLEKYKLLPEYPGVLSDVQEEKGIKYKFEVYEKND
Provide the recorded pIC50 for the entries that follow.
Answers are plain numbers, as −log10 of the molar value.

COc1ccc(OC)c(Cc2sc3nc(N)nc(N)c3c2C)c1 | 6.14

Consider the record given below.
// recorded pIC50 for COc1ccc(OC)c(-c2sc3nc(N)nc(N)c3c2C)c1 : 6.12

----------
- study_target: UniProtKB Q920D2
- Sequence (Q920D2 whole entry): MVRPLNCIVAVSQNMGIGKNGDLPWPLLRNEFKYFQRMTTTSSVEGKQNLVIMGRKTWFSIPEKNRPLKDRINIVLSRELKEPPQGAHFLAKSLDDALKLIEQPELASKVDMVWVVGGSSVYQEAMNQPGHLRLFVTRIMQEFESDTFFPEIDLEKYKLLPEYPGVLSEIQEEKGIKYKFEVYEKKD
Cut-off 1 µM on IC50: below means met, at or above means not met.

# count of solved cases: 5
COc1ccc(OC)c(CCCc2csc3nc(N)nc(N)c23)c1 | not met
Cc1sc2nc(N)nc(N)c2c1Cc1ccccc1 | not met
COc1ccc(OC)c(-c2sc3nc(N)nc(N)c3c2C)c1 | met
Nc1nc(N)c2c3c(sc2n1)CCCCCCCCCC3 | not met
COc1cc(CCc2sc3nc(N)nc(N)c3c2C)cc(OC)c1OC | not met

Does COc1ccc(OC)c(Cc2sc3nc(N)nc(N)c3c2C)c1 have IC50 strictly under 1 µM?
met

Say whether its IC50 is strictly beneath 1 µM. Entry: Nc1nc(N)c2c3c(sc2n1)CCCCC3
not met

Reference source for all entries: ChEMBL document CHEMBL1126852
